- SYSTEM_UNDER_TEST: SARS-CoV-2 spike protein on pseudotyped lentivirus (Wuhan Reference Pseudovirus) (SARS-CoV-2, UniProt P0DTC2 14-1273)
- PROTOCOL: cell-based or functional assay
Give Pseudovirus inhibition IC50 [Cont. 1] for every item shown.
Give the value in nM but do not write nM after it.

Bench note: what Pseudovirus inhibition IC50 [Cont. 1] did dimeric VHH (VHH-5HVZ-MBP) R2C-G6 (VHH) VHH: QVQLVESGGGLVQPGGSLRLSCAASGSIYKYSDVHWFRQAPGKAREAVALLTGAGTTIYGDSVKGRFTISRDNAKNTVYLQMNSLKPEDTAVYYCAAGQGFKATRTFDSWGQGTQVTVSS show? 134

Bench note: what Pseudovirus inhibition IC50 [Cont. 1] did PP1144 MBP-5HVZ-PAPA-R2c-F6-H6 (VHH, Form: Dimer) VHH: QVQLVESGGGLVQPGGSLRLSCAASGRILAANIVHWYRQAPGKEREGVAGITTGGSNYYSDSVKGRFTISRDNAKNTVYLQMNSLKPEDTAVYYCNALGLGSASGSYESWGQGTQVTVSS show? 2.75

Bench note: what Pseudovirus inhibition IC50 [Cont. 1] did PP1133 MBP-4B0F-PAPA-R2d-A6-H6 (VHH, Form: Heptamer) VHH: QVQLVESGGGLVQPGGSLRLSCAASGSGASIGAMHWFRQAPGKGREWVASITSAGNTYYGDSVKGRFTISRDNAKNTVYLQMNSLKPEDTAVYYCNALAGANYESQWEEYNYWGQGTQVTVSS show? 180

Bench note: what Pseudovirus inhibition IC50 [Cont. 1] did PP1146 MBP-5HVZ-PAPA-R2d-D3-H6 (VHH, Form: Dimer) VHH: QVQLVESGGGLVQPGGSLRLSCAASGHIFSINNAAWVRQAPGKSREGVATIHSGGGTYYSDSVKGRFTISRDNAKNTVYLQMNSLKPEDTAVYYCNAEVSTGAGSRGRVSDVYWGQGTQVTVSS show? 77

Source: patent US20240150440A1
